Tested on: CP325
Assay summary: qHTS profiling for inhibitors of Plasmodium falciparum proliferation (AID 504749); also: nearly all actives have a fitted effect of over 60% in size
Measurement parameters: P. falciparum in erythrocytes, SYBR Green DNA, 72 h; series mostly up to 28.7 µM
Results filed as inconclusive are left out. Activity calls are given as the source filed them. Calls follow the shape of the dose curve; as a rule, active = well fitted inhibition curve with a large enough effect; inconclusive = small, poorly fitted or top-dose-only effect; inactive = flat fitted curve, though single readings scatter.
Write down one outcome, taken from t (active), f (inactive)

Check out these entries, answers already filled in.
>>> answer_label("NC(Cc1ccc(Oc2cc(I)c(O)c(I)c2)c(I)c1)C(=O)O (stereo unspecified)")
"f"
>>> answer_label("C[C@@H]1CC[C@H]2[C@@H](C)C(=O)O[C@@H]3OC4(C)CC[C@@H]1C32OO4 (stereo partly specified)")
"t"
>>> answer_label("CCCC(C)C1(CC)C(=O)NC(=S)NC1=O (stereo unspecified)")
"f"
>>> answer_label("CCOC(=O)/C=C(C)/C=C/CC(C)CCCC(C)C (stereo unspecified)")
"f"
>>> answer_label("CCCCCCC(=O)O[C@H]1CC[C@H]2[C@@H]3CCC4CC(=O)C=C(C)[C@]4(C)[C@H]3CC[C@]12C (stereo partly specified)")
"f"

API: the following record is the query input.
Exercise: Would you mind telling me which call this test gave CC12CCC3C4CCC(=O)C(O)=C4CCC3C1CCC2OC(=O)CCC1CCCC1 (stereo unspecified) ?
Solution: f
